Cited source for all entries: PubChem BioAssay

- target_desc: Alpha-2C adrenergic receptor (Homo sapiens) (UniProt P18825)
- Sequence (P18825 whole entry, looked up): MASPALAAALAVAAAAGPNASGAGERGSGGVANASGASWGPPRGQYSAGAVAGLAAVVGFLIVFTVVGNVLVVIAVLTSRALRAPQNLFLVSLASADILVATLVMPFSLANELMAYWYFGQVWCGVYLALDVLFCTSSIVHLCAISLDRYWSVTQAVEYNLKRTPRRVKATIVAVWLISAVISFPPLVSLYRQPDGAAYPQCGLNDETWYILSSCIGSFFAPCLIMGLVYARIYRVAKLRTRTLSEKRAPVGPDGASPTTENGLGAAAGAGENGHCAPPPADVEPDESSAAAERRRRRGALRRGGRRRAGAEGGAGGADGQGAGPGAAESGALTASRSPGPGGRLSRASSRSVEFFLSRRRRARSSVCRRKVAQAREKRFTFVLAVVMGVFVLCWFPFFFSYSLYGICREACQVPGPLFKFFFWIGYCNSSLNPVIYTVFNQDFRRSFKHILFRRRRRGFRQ
- assay_overview: compounds altering alpha2C-coupled GIRK flux – cell-based, HEK293 alpha2C/GIRK1/2, thallium flux, primary screen (AID 624);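 note: slope of fluorescence ratio to pre-addition baseline per second over 15 to 24 s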
- measurement_conditions: thallium flux BTC fluorescence, at 10 µM, actives lie on both sides
A collection of compounds and their measured slope
Note: the reply should be a number with no unit written.

Here is how some compounds turned out for slope.
O=C(O)c1ccc(COc2ccc(Cl)cc2)o1: 0.00685
COC(=O)C1=C(C)Nc2nnnn2C1c1cccs1 (configuration not stated): 0.0058
CCOc1ccccc1N(C(=O)Cn1nnnc1-c1ccc(C)o1)C(CC)C(=O)NC(C)(C)C (configuration not stated): 0.00561
Cc1cc(OCC(=O)N2CCCC2)cc(C)c1Cl: 0.00573
COc1ccc(OC)c(S(=O)(=O)N2CCN(c3c(C)cccc3C)CC2)c1: 0.00796

For the compound CC(Oc1ccccc1)C(=O)NC1CC(C)(C)NC(C)(C)C1 (configuration not stated) , give its measured slope value.
0.00587

For the compound COc1ccc(CC(NC(C)=O)C(=O)N2CCN(C(=O)N(C(C)C)C(C)C)CC2)cc1 (configuration not stated) , give its measured slope value.
0.00701

====

A collection of compounds and their measured inhibition
- assay_overview: inhibitors of TNFa-induced NFkB p65 translocation, primary screen, imaging, HUVEC, MLSMR starter and 10KST1 sets (AID 438);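 note: compound added about 3h40 before a 20 min TNFalpha stimulation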;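 for inhibition: signal is the nuclear over cytoplasmic p65 intensity ratio per well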
- measurement_conditions: HUVEC TNFa-induced p65 nuclear translocation; at 2 µM, stronger effect = higher value, 0% TNFa-plus-vehicle, 100% no-TNFa wells
// return numeric value only (unit: %, not printed)

CC(C)C(=O)Nc1ccc2c(c1)nc1n2CCSC1: -2.5
Cn1c(=O)c2c(nc(NCCCO)n2CCc2ccccc2)n(C)c1=O: 9.7
Cc1ccnc2c(N3C(=O)C4C5C=CC(C5)C4(C)C3=O)cccc12 (stereo not drawn): -6.5
CCc1nn(CC(=O)N2CCN(Cc3ccc4c(c3)OCO4)CC2)c(=O)c2cc3occc3n12: 1.7
Cc1c(C(=O)NCc2cccnc2)oc2ccc(S(=O)(=O)N3CCCCC3)cc12: -17
O=C(Cn1cnc2c(nnn2Cc2ccc(Cl)cc2)c1=O)NCC1CCCO1 (stereo not drawn): -18.8

For the compound "O=C(Cn1c(=O)sc2ccccc21)NCCOc1ccccc1F" , give its measured inhibition value.
-12

For the compound "CN(C)c1cc(NC(=O)CN2CCOCC2)c2ccccc2n1" , give its measured inhibition value.
1.2

====

- assay_overview: inhibitors of TNFa-induced NFkB p65 translocation, primary screen, imaging, HUVEC, MLSMR starter and 10KST1 sets (AID 438);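 note: compound added about 3h40 before a 20 min TNFalpha stimulation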
- measurement_conditions: HUVEC TNFa-induced p65 nuclear translocation; measured here: nuclei count (cytotoxicity indicator), at 2.08 µM
observed_property: cell count

Here is how some molecules turned out for cell count.
Cc1cc(C(F)(F)F)nc(NCc2cccnc2)n1: 597
CCOc1ccc(-n2cc(C(=O)N3CCN(C)CC3)c3cc(OC)c(OC)cc3c2=O)cc1: 393
CCCCC(CC)CNC(=O)C1CCCN(S(=O)(=O)c2cnc[nH]2)C1 (stereo unspecified): 565
COc1ccc(-n2nnnc2SCC(=O)N2CCOCC2)cc1: 788
CCOC(=O)c1cccc(NC(=O)c2ccco2)c1: 690

For the molecule CCCSCCCNC(=O)Cn1cc2c(n1)CCC(C)C2 (stereo unspecified) , give its measured cell count value.
652

For the molecule "O=C(Cn1nnc(-c2ccc(CN3CCOCC3)cc2)n1)NC1CCCCC1" , give its measured cell count value.
447

For the molecule "CN(C)CCCn1c(N)c(C#N)c2nc(C#N)c(C#N)nc21" , give its measured cell count value.
735

====

- target_desc: Voltage-gated potassium channel subunit beta-2 (Rattus norvegicus) (UniProt P62483)
- Sequence (P62483 whole entry, looked up): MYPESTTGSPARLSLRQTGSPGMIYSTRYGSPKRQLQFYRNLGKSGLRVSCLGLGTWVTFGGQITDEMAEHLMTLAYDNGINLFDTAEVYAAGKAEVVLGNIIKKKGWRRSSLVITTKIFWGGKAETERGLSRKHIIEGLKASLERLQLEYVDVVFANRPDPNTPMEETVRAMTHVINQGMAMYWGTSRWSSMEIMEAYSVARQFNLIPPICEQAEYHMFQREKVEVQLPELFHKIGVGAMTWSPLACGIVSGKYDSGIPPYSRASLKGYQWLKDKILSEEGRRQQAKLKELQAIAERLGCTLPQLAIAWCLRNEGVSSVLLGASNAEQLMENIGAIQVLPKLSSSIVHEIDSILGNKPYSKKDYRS
- assay_overview: enhancers of rat Kvbeta2 NADPH turnover – biochemical, NADPH fluorescence, primary screen (AID 623);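 note: fluorescence intensity change per second fitted from 20 to 320 s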
- measurement_conditions: Recombinant KvBeta, NADPH fluorescence decrease slope, 10 min; at 10 µM; stronger effect = lower value
A collection of compounds and their measured NADPH fluorescence slope
Note: the reply should be a number with no unit written.

Here is how some compounds turned out for NADPH fluorescence slope.
CCCCCc1c(O)nc(SCC(=O)NCC2CCCO2)[nH]c1=O (centres undefined): 3.1e-05
COc1cc2c(c(OC)c1)C(c1ccncc1)CC(=O)N2 (centres undefined): -2.7e-06

For the compound "Cn1cc(C(=O)c2ccc(F)cc2)cc1-c1nc2ccccc2n1C" , give its measured NADPH fluorescence slope value.
-4.1e-05

For the compound "Cc1cc(Nc2ccc(C(=O)O)cc2)n2nc(C)nc2n1" , give its measured NADPH fluorescence slope value.
-1.5e-05

====

- assay_overview: inhibitors of TNFa-induced NFkB p65 translocation, primary screen, imaging, HUVEC, MLSMR starter and 10KST1 sets (AID 438);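 note: compound added about 3h40 before a 20 min TNFalpha stimulation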;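 for inhibition: signal is the nuclear over cytoplasmic p65 intensity ratio per well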
- measurement_conditions: HUVEC TNFa-induced p65 nuclear translocation; at 2 µM, stronger effect = higher value, 0% TNFa-plus-vehicle, 100% no-TNFa wells
observed_property: inhibition (%)
// return numeric value only (unit: %, not printed)

Here is how some compounds turned out for inhibition.
COc1ccc(N(CC(=O)Nc2ccc3c(c2)OCO3)S(=O)(=O)c2c(C)nn(C)c2C)cc1: 11.9
CCC1(c2ccc(F)cc2)NC(=O)N(CC(=O)c2ccc[nH]2)C1=O (stereo unspecified): -20.6
CCc1cc2c(=O)n(C(C)C(=O)OC3CCCCC3)cnc2s1 (stereo unspecified): 0
Oc1ccc2cccnc2c1: -12.9
CC1CCN(C(=O)CSc2nc3c(cnn3-c3ccccc3)c(=O)[nH]2)CC1: 2.3
O=C(NC1CCCCC1)n1c(=O)oc2ccc(Cl)cc21: 13.9
CC1CCCCC1NC(=O)C1CCN(C(=O)NC2CCCCC2)CC1 (stereo unspecified): -4.9
Fc1ccc(C(c2nnnn2Cc2ccco2)N2CCN(C3CCCCC3)CC2)cc1 (stereo unspecified): -3.3
O=C(CSCc1cnn(-c2ccccc2)c1-n1cccc1)NCC1CCCO1 (stereo unspecified): -10
COC(=O)c1ccc(NC(=O)CN2CCN(c3ccc(Cl)cc3)CC2)cc1: -11.2

For the compound COC(=O)c1cn(NC(=O)C2CCCO2)c(=O)c2ccccc12 (stereo unspecified) , give its measured inhibition value.
-2.5

====

- target_desc: Voltage-gated potassium channel subunit beta-2 (Rattus norvegicus) (UniProt P62483)
- assay_overview: enhancers of rat Kvbeta2 NADPH turnover – biochemical, NADPH fluorescence, primary screen (AID 623);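 note: fluorescence intensity change per second fitted from 20 to 320 s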
- measurement_conditions: Recombinant KvBeta, NADPH fluorescence decrease slope, 10 min; at 10 µM; stronger effect = lower value
A collection of molecules and their measured NADPH fluorescence slope
Note: the reply should be a number with no unit written.

Here is how some molecules turned out for NADPH fluorescence slope.
COc1cccc(CN2CCN(C(=O)c3ccco3)CC2)c1OC: 1.5e-05
CCN(CC)S(=O)(=O)c1cccc(-c2nnc(SCC(N)=O)n2CCc2ccccc2)c1: -8.5e-06
Cc1cc(C)n2cc(CSc3nnnn3C)nc2n1: -4.3e-06
O=C(CSc1oc(-c2ccco2)nc1S(=O)(=O)c1ccccc1)NCC1CCCO1 (stereo not given): -4.8e-05
CCc1ccc(NC(=O)C2CC(=O)N(C(C)C)C2)cc1 (stereo not given): 2.5e-05

For the molecule "Cn1nc(C(=O)N2CCOCC2)c2ccccc2c1=O" , give its measured NADPH fluorescence slope value.
-3.1e-05

For the molecule "Cc1cc(N=Cc2cc(Br)ccc2O)no1" , give its measured NADPH fluorescence slope value.
-3.4e-05

====

- assay_overview: endothelial E-selectin expression blockers – imaging, HUVEC, immunofluorescence, MLSMR starter and 10KST1 sets, primary screen (AID 487);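 note: signal is fraction of cell area covered by stained E-selectin grains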
- measurement_conditions: HUVEC TNFalpha-induced E-selectin immunofluorescence imaging, at 2 µM; stronger effect = higher value
Activity calls are given as the source filed them.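 Rule for the calls: active = visually confirmed hit in the image check and inhibition above 20%; inconclusive = visually confirmed hit but inhibition not above 20%; inactive = no visual hit in the image check.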
observed_property: inhibition

Here is how some compounds turned out for inhibition.
CCCCN(CC)CCCNC(=O)CS(=O)(=O)Cc1nc(-c2cccc(OC)c2)oc1C: -24.9% (inactive)
Cn1c(=O)c2c(nc(NCc3ccccc3)n2CCCc2ccccc2)n(C)c1=O: -77.1% (inactive)

For the compound "Cc1oc(-c2ccccc2Cl)nc1CSCC(=O)N1CCCC1" , give its measured inhibition value.
62.6% (active)

For the compound "O=C(c1ccc(CNS(=O)(=O)c2cccc(C(F)(F)F)c2)cc1)N1CCOCC1" , give its measured inhibition value.
14.7% (inactive)

For the compound "CCOC(=O)N1CCN(C(=O)c2ccc3c(=O)n(Cc4ccc(OC)cc4)c(=S)[nH]c3c2)CC1" , give its measured inhibition value.
2.4% (inactive)

For the compound "CCN(CCCNS(=O)(=O)c1ccc2c(c1)oc(=O)n2C)c1cccc(C)c1" , give its measured inhibition value.
-21.3% (inactive)

For the compound "CCOC(=O)C1CCN(c2cc(C)nc3cc(-c4cccc(F)c4)nn23)CC1" , give its measured inhibition value.
-82.8% (inactive)

For the compound CCCC1(C(=O)OC)NC(c2cc(OC)c(OC)c(OC)c2)C2C(=O)N(CC)C(=O)C21 (stereo not given) , give its measured inhibition value.
-37.6% (inactive)
